Taken from paper PMC7075946.

Molecular target: UniProtKB P58681
Sequence (P58681 27-1050): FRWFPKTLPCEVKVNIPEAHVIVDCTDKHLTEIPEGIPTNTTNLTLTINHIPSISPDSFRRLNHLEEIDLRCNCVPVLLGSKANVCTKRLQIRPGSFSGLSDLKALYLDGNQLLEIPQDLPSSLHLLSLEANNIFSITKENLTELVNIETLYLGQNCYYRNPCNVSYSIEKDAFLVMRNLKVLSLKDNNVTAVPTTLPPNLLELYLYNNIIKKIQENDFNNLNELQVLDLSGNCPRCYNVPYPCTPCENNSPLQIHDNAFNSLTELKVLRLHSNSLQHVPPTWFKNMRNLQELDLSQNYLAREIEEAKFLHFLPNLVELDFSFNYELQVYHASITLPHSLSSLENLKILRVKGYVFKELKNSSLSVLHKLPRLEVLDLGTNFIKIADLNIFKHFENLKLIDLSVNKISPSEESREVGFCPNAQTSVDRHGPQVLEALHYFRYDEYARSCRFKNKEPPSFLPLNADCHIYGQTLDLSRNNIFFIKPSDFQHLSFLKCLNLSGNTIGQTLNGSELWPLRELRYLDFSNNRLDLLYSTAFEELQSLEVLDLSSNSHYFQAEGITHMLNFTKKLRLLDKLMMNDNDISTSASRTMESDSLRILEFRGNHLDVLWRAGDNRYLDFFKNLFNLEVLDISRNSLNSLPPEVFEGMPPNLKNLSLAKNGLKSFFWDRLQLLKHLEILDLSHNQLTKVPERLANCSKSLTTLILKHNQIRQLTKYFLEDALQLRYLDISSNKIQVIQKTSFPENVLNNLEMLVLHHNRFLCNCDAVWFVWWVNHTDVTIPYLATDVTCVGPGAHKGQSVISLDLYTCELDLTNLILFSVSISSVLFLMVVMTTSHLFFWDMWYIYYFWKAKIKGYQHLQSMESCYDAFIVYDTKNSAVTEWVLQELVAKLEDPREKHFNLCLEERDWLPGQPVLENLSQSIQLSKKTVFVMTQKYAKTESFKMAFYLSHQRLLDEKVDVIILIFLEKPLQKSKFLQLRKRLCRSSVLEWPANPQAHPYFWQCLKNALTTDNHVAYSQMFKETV
Experiment: cell-based
measured-metric: pEC50
A value of pEC50 is the negative decimal logarithm of a concentration given in moles per litre.

Previously resolved entries follow.
CCCCc1nc2c(N)nc3ccccc3c2n1CCO; 6.32
CCCCCCCCCCCCCCCC(=O)OC[C@H](COCCOCCOCCOP(=O)(O)OCCn1c(CCCC)nc2c(N)nc3ccccc3c21)OC(=O)CCCCCCCCCCCCCCC; 4.90
CCCCCCCC/C=C\CCCCCCCC(=O)OC[C@H](COP(=O)(O)OCCc1ccc2c(c1)nc(N)c1nc(CCCC)n(CCO)c12)OC(=O)CCCCCCC/C=C\CCCCCCCC; 5.94

Switching to the query record.
Looking for the measured pEC50 of CCCCCCCCCCCCCCCC(=O)OC[C@H](COCCOCCOCCOCCOCCOCCOP(=O)(O)OCCn1c(CCCC)nc2c(N)nc3ccccc3c21)OC(=O)CCCCCCCCCCCCCCC , can you help?
6.07

---

Biological target: UniProtKB Q9NR97
Sequence (Q9NR97 27-1041): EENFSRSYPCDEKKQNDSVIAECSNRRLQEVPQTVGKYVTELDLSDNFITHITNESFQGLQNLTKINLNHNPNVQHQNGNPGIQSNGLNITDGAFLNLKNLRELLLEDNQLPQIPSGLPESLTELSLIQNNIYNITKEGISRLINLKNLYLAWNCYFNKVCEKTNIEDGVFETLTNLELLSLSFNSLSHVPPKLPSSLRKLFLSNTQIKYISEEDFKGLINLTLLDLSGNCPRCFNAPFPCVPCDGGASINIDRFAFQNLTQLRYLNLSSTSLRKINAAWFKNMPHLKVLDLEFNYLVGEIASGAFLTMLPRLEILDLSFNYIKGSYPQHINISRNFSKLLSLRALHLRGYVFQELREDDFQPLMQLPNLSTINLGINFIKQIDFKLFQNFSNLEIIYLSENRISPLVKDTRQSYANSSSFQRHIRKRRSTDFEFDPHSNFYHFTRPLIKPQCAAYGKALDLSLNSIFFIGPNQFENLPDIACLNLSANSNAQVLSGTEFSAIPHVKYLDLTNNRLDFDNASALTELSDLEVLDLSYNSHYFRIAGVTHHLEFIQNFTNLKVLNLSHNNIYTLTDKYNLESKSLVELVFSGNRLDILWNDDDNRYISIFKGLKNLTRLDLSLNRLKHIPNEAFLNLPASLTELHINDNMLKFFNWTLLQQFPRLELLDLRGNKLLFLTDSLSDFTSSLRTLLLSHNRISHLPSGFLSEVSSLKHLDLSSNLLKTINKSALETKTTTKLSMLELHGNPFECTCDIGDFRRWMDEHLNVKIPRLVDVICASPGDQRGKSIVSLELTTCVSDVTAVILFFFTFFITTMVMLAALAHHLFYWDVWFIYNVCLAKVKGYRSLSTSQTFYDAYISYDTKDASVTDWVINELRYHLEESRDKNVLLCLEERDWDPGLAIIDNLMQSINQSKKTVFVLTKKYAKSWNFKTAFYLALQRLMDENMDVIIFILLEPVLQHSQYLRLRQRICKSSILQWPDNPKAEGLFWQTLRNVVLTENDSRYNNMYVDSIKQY
Assay: cell-based
# EC50 listing for each entry below
Number in µM, nothing else.

Previously resolved entries follow.
CCCCc1nc2c(N)nc3ccccc3c2n1CCO; 0.53
CCCCCCCCCCCCCCCC(=O)OC[C@H](COCCOCCOCCOCCOCCOCCOP(=O)(O)OCCn1c(CCCC)nc2c(N)nc3ccccc3c21)OC(=O)CCCCCCCCCCCCCCC; 24.6

Looking for the measured EC50 of CCCCCCCCCCCCCCCC(=O)OC[C@H](COCCOCCOCCOP(=O)(O)OCCn1c(CCCC)nc2c(N)nc3ccccc3c21)OC(=O)CCCCCCCCCCCCCCC , can you help?
52.5

For CCCCCCCC/C=C\CCCCCCCC(=O)OC[C@H](COP(=O)(O)OCCc1ccc2c(c1)nc(N)c1nc(CCCC)n(CCO)c12)OC(=O)CCCCCCC/C=C\CCCCCCCC then?
0.27

---

Target: UniProtKB Q9NYK1
Sequence (Q9NYK1 27-1049): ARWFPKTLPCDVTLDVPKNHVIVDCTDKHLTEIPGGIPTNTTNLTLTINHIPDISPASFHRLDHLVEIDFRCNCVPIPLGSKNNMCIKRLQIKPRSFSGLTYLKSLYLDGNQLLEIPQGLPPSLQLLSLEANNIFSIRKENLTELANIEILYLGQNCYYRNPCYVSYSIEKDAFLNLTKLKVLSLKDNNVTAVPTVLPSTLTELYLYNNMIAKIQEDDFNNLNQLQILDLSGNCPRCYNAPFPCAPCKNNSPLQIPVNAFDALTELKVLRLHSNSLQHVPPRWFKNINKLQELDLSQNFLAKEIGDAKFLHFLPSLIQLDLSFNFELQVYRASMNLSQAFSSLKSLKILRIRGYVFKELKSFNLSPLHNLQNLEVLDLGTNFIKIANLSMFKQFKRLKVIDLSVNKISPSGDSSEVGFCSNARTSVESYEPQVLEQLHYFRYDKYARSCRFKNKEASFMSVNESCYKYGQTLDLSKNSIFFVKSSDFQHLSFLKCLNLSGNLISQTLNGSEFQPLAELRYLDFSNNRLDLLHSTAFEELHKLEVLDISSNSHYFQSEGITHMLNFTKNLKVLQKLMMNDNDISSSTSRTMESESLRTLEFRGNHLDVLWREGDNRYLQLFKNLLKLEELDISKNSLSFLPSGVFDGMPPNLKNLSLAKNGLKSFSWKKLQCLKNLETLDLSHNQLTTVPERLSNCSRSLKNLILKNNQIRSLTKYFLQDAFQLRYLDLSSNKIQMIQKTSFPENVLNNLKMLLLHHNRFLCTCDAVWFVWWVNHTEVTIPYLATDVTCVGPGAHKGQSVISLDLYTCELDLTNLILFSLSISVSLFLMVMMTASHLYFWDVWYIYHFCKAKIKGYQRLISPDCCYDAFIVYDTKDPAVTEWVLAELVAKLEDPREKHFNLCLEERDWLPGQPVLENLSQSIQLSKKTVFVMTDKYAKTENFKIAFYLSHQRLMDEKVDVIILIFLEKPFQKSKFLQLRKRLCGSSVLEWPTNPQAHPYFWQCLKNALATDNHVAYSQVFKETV
Assay: cell-based
# pEC50 listing for each entry below
A value of pEC50 is the negative decimal logarithm of a concentration given in moles per litre.

CCCCCCCCCCCCCCCC(=O)OC[C@H](COCCOCCOCCOP(=O)(O)OCCn1c(CCCC)nc2c(N)nc3ccccc3c21)OC(=O)CCCCCCCCCCCCCCC; 4.46

Looking for the measured pEC50 of CCCCc1nc2c(N)nc3ccccc3c2n1CCO , can you help?
5.95

For CCCCCCCC/C=C\CCCCCCCC(=O)OC[C@H](COP(=O)(O)OCCc1ccc2c(c1)nc(N)c1nc(CCCC)n(CCO)c12)OC(=O)CCCCCCC/C=C\CCCCCCCC then?
3.30

For CCCCCCCCCCCCCCCC(=O)OC[C@H](COCCOCCOCCOCCOCCOCCOP(=O)(O)OCCn1c(CCCC)nc2c(N)nc3ccccc3c21)OC(=O)CCCCCCCCCCCCCCC then?
4.22
